Where these numbers come from: PubChem BioAssay (Tox21)

Assay: A CellTox Green Cytotoxicity Assay to monitor cytotoxicity in HepG2 cells - 32 hour (AID 1224883); also: nearly all actives have a fitted effect of over 50% in size
Settings: CellTox Green fluorescence; series mostly up to 76.8 µM
Inconclusive results are not listed. Activity calls are given as the source filed them. Calls follow the shape of the dose curve; as a rule, active = well fitted activation curve with a large enough effect in the repeat runs; inconclusive = weak or mixed curves; inactive = flat fitted curve, though single readings scatter.
Bench note: report the call from active, inactive

Ask: Hey, what did the test say about CCCCCCCCCCCCCCC(Br)C(=O)O (centres undefined) ?
Reply: active

Ask: Call for entry CC[C@H]1C[C@@H]2C[C@H]3c4[nH]c5ccc(OC)cc5c4CCN(C2)[C@@H]13 :
Reply: active

Ask: Entry O=C(CCCN1CCC2(CC1)C(=O)NCN2c1ccccc1)c1ccc(F)cc1 : call = ?
Reply: inactive

Ask: Could you please tell me the result logged for CC(c1ccc(O)cc1)c1ccc(O)cc1 in this assay?
Reply: inactive

Ask: // outcome(item) with item = c1ccc2cc3c(cc2c1)-c1cccc2cccc-3c12
Reply: inactive

Ask: Please share the test call associated with C[C@]12CC[C@@H]3c4ccc(OC(=O)N(CCCl)CCCl)cc4CC[C@H]3[C@@H]1CC[C@@H]2O .
Reply: inactive
